Data origin: the supplement of paper PMC8371130

tested on: HL-1; assay: relative cell viability (CellTiter-Glo) vs DMSO control (% of DMSO control); higher = more viable cells; settings: oxygen condition: hypoxia 48 h (1% O2) + reoxygenation 24 h; 1000 nM
Consider the following compounds and their measured relative cell viability readings.
Lab note: record the figure alone, no unit after it.

Worked examples, 4 compounds total:
| COMPOUND | relative cell viability |
| --- | --- |
| CN(CCOc1ccc(NS(C)(=O)=O)cc1)CCc1ccc(NS(C)(=O)=O)cc1 [Dofetilide] | 99.2 |
| O=C(Nc1c(Cl)cncc1Cl)c1ccc(OC(F)F)c(OCC2CC2)c1 | 92.9 |
| Clc1ccc2c(c1)CCc1cccnc1C2=C1CCNCC1 | 102 |
| C=CCc1cc(OC)c(O)c(C(=O)NCCO)c1 [Alibendol] | 108 |

Note: attention shifts to another entry.
Report relative cell viability for CNC(=O)CN(CCN(CCN(CC(=O)[O-])CC(=O)NC)CC(=O)[O-])CC(=O)[O-].[Gd+3] [Gadodiamide]
98.5

----------
Consider the following compounds and their measured relative cell viability readings.
tested on: HL-1; assay: relative cell viability (CellTiter-Glo) vs DMSO control (% of DMSO control); higher = more viable cells; conditions: oxygen condition: normoxia 72 h; 200 nM
Structures can show the parent of a compound that is named as a salt.

| COMPOUND | RESULT |
| --- | --- |
| CC1(C)S[C@@H]2[C@H](NC(=O)[C@H](NC(=O)N3CCNC3=O)c3ccccc3)C(=O)N2[C@H]1C(=O)O [Azlocillin sodium salt] | 104 |
| Cn1c(CNc2ccc(C(=N)N)cc2)nc2cc(C(=O)N(CCC(=O)O)c3ccccn3)ccc21 | 102 |
| CCCSc1nc(N[C@@H]2C[C@H]2c2ccc(F)c(F)c2)c2nnn([C@@H]3C[C@H](OCCO)[C@@H](O)[C@H]3O)c2n1 | 108 |

Note: attention shifts to another entry.
Report relative cell viability for Cc1c(O)c(=O)ccn1C
102

----------
test system: HL-1; assay: relative cell viability (CellTiter-Glo) vs DMSO control (% of DMSO control); higher = more viable cells; settings: oxygen condition: hypoxia 48 h (1% O2) + reoxygenation 24 h; 40 nM
Where a name gives a salt, the structure may show the parent alone.
Consider the following molecules and their measured relative cell viability readings.
Lab note: record the figure alone, no unit after it.

| MOLECULE | STUDY TARGET | relative cell viability |
| --- | --- | --- |
| CNC(=O)c1ccccc1Sc1ccc2c(/C=C/c3ccccn3)n[nH]c2c1 | HL-1 | 110 |

Report relative cell viability for C[C@H]1O[C@H](O[C@H]2[C@H](O)[C@@H](O)[C@@H](O[C@H]3[C@H](O)[C@@H](O)C(O)O[C@@H]3CO)O[C@@H]2CO)[C@H](O)[C@@H](O)[C@@H]1N[C@H]1C=C(CO)[C@@H](O)[C@H](O)[C@H]1O (some centres not stated)
106

Report relative cell viability for O=NN(CCCl)C(=O)NC1CCCCC1
90.8

Report relative cell viability for CC(=O)[C@H]1CC[C@H]2[C@@H]3C=CC4=CC(=O)CC[C@@]4(C)[C@@H]3CC[C@]12C
97.1

Report relative cell viability for CN(C)CCC(c1ccccc1)c1ccccn1 (configuration not stated) [Pheniramine Maleate]
102

Report relative cell viability for C[C@H](CS)C(=O)N1CCC[C@H]1C(=O)O
108

Report relative cell viability for COc1cc2nc(N3CCN(C(=O)C4COc5ccccc5O4)CC3)nc(N)c2cc1OC (configuration not stated) [Doxazosin mesylate]
104

Report relative cell viability for CN(C)CCOC(C)(c1ccccc1)c1ccccn1 (configuration not stated) [Doxylamine Succinate]
111

Report relative cell viability for CCCCC(=O)O[C@H]1CC[C@H]2[C@@H]3CCc4cc(O)ccc4[C@H]3CC[C@]12C [Estradiol valerate]
100

Report relative cell viability for COc1ccccc1N1CCN(CC(O)COc2cccc3ccccc23)CC1 (configuration not stated)
103
